Parameter: pIC50. Scope: all listed entries.
- subject-of-test: Bifunctional epoxide hydrolase 2 (Homo sapiens)
- Sequence (P34913 whole entry): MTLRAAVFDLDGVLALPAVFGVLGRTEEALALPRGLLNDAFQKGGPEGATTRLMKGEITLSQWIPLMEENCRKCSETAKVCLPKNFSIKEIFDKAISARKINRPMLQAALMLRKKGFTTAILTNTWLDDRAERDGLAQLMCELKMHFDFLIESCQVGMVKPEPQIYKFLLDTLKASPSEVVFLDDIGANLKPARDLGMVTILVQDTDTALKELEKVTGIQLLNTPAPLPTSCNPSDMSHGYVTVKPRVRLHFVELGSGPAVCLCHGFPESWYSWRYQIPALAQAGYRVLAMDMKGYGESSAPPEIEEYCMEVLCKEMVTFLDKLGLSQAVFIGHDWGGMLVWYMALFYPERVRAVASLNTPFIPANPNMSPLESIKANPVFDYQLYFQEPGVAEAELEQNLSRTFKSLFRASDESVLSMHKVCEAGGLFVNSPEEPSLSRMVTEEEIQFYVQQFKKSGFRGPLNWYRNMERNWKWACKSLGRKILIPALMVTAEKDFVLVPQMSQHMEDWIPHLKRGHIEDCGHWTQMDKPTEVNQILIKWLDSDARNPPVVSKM
- experiment-notes: Inhibition of human recombinant soluble epoxide hydrolase using cyano(6-methoxy-naphthalen-2-yl)methyl-trans-[(3-phenyloxiran-2-yl)methyl]carbonate as substrate after 5 mins by fluorescence assay
pIC50: −log10 of the molar value.
assay-readout: pIC50

# given-smiles, subject-of-test, assay-readout, reading
records = [
    ("CC(=O)N1CCN(CCCCOc2cccc(NC(=O)CC34CC5CC(CC(C5)C3)C4)c2)CC1", "Bifunctional epoxide hydrolase 2 (Homo sapiens)", "pIC50", 9.22),
    ("CS(=O)(=O)N1CCN(C(=O)c2ccc(NC(=O)NC34CC5CC(CC(C5)C3)C4)cc2)CC1", "Bifunctional epoxide hydrolase 2 (Homo sapiens)", "pIC50", 9.00),
    ("O=C(NC12CC3CC(CC(C3)C1)C2)N1CCNCC1", "Bifunctional epoxide hydrolase 2 (Homo sapiens)", "pIC50", 4.00),
    ("CS(=O)(=O)N1CCN(C(=O)c2cccc(NC(=O)NC34CC5CC(CC(C5)C3)C4)c2)CC1", "Bifunctional epoxide hydrolase 2 (Homo sapiens)", "pIC50", 7.38),
    ("O=C(Nc1cccc(C(=O)N2CCNCC2)c1)NC12CC3CC(CC(C3)C1)C2", "Bifunctional epoxide hydrolase 2 (Homo sapiens)", "pIC50", 6.87),
    ("CC(C)(C)OC(=O)N1CCN(C(=O)c2ccc(NC(=O)NC34CC5CC(CC(C5)C3)C4)cc2)CC1", "Bifunctional epoxide hydrolase 2 (Homo sapiens)", "pIC50", 9.30),
    ("CN1CCN(C(=O)NC23CC4CC(CC(C4)C2)C3)CC1", "Bifunctional epoxide hydrolase 2 (Homo sapiens)", "pIC50", 7.20),
    ("CC(C)(C)OC(=O)N1CCN(CCCCOc2cccc(NC(=O)CC34CC5CC(CC(C5)C3)C4)c2)CC1", "Bifunctional epoxide hydrolase 2 (Homo sapiens)", "pIC50", 9.40),
    ("CC(C)(C)OC(=O)N1CCN(C(=O)NC23CC4CC(CC(C4)C2)C3)CC1", "Bifunctional epoxide hydrolase 2 (Homo sapiens)", "pIC50", 6.31),
    ("O=C(Nc1ccc(C(=O)N2CCNCC2)cc1)NC12CC3CC(CC(C3)C1)C2", "Bifunctional epoxide hydrolase 2 (Homo sapiens)", "pIC50", 7.17),
    ("CC(=O)N1CCN(C(=O)c2cccc(NC(=O)NC34CC5CC(CC(C5)C3)C4)c2)CC1", "Bifunctional epoxide hydrolase 2 (Homo sapiens)", "pIC50", 7.33),
    ("CC(C)(C)OC(=O)N1CCN(C(=O)c2cccc(NC(=O)NC34CC5CC(CC(C5)C3)C4)c2)CC1", "Bifunctional epoxide hydrolase 2 (Homo sapiens)", "pIC50", 8.14),
    ("CS(=O)(=O)N1CCN(CCCCOc2cccc(NC(=O)CC34CC5CC(CC(C5)C3)C4)c2)CC1", "Bifunctional epoxide hydrolase 2 (Homo sapiens)", "pIC50", 9.30),
    ("CC(=O)N1CCN(C(=O)c2ccc(NC(=O)NC34CC5CC(CC(C5)C3)C4)cc2)CC1", "Bifunctional epoxide hydrolase 2 (Homo sapiens)", "pIC50", 8.05),
    ("CC(=O)N1CCN(C(=O)NC23CC4CC(CC(C4)C2)C3)CC1", "Bifunctional epoxide hydrolase 2 (Homo sapiens)", "pIC50", 6.49),
    ("CC(=O)N1CCN(C(=O)CCC(=O)N2CCC(NC(=O)NC34CC5CC(CC(C5)C3)C4)CC2)CC1", "Bifunctional epoxide hydrolase 2 (Homo sapiens)", "pIC50", 7.35),
    ("CC(C)(C)OC(=O)N1CCN(CCCOc2ccc(NC(=O)NC34CC5CC(CC(C5)C3)C4)c3cccnc23)CC1", "Bifunctional epoxide hydrolase 2 (Homo sapiens)", "pIC50", 8.17),
    ("CC(=O)N1CCN(CCCOc2ccc(NC(=O)NC34CC5CC(CC(C5)C3)C4)c3cccnc23)CC1", "Bifunctional epoxide hydrolase 2 (Homo sapiens)", "pIC50", 6.85),
    ("O=C(NC1CCN(C(=O)CCC(=O)N2CCNCC2)CC1)NC12CC3CC(CC(C3)C1)C2", "Bifunctional epoxide hydrolase 2 (Homo sapiens)", "pIC50", 7.11),
    ("CC(C)(C)OC(=O)N1CCN(C(=O)CCC(=O)N2CCC(NC(=O)NC34CC5CC(CC(C5)C3)C4)CC2)CC1", "Bifunctional epoxide hydrolase 2 (Homo sapiens)", "pIC50", 7.73),
]
